Every entry's value here was drawn from patent US9556170B2.

- system-tested: LSD1 (Homo sapiens (Human), UniProt O60341)
- assay-summary: LSD1 histone demethylase assay (LSD1 Inhibitor Screening Assay Kit, Cayman Chemical)
- Type: biochemical
- measurement-context: H2O2/resorufin fluorescence readout, dimethyl K4 H3 peptide substrate
- Experimental: Recombinant (expressed in baculovirus infected BTI insect cells) monoamine oxidase A and monoamine oxidase B (Catalog No. M7316 and M7441, respectively) were purchased from Sigma-Aldrich Co. LLC. (St. Louis, Mo.). MAO-Glo™ Assay Kit was purchased from Promega Corporation (Madison, Wis.). ATPlite™ Luminescence Assay System (e.g. Catalog No. V1401) was purchased from PerkinElmer Inc. (Waltham, Mass.). IC50 values are determined using GraphPad Prism 5 software. […]
Here, each record is paired with measured IC50 data.
Your answer is read as µM, so omit the unit and give the number.

>>> reported_measurement("O=S(=O)(c1ccc2[nH]c(Nc3cc(Cl)ccc3O)nc2c1)N1CCNCC1")
0.081

Attention now shifts to the item below.
GET /value?item= CN1CCN(S(=O)(=O)c2ccc3[nH]c(Nc4cc(Cl)ccc4O)nc3c2)CC1 &field=IC50 returns 0.273
